As a worked illustration, we turn to pIC50 data collected for UniProt P06276.
Sequence (P06276 whole entry): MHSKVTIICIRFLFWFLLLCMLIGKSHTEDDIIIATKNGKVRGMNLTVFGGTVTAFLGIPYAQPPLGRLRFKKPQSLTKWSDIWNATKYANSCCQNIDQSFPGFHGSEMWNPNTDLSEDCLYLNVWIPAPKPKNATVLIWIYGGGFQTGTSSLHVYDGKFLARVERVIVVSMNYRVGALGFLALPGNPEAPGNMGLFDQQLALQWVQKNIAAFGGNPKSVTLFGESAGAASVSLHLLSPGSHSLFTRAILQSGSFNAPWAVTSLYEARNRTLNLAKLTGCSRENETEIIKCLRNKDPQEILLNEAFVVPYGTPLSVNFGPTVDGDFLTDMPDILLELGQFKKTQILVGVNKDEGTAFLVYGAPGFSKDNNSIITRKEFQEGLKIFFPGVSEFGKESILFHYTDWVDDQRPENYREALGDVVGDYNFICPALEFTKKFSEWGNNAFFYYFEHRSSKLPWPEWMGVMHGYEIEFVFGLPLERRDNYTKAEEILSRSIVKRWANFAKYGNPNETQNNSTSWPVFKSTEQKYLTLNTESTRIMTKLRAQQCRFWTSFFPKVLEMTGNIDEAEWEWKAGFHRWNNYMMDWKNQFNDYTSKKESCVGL
pIC50: −log10 of the molar value.

| SMILES | COMPARISON_SIGN | pIC50 |
| --- | --- | --- |
| Cl.Cl.Cl.Oc1c(CNCCCCCCCCCNc2c3c(nc4ccccc24)CCCC3)cc(Cl)c2cccnc12 | = | 7.26 |
| Cl.Cl.Oc1c(CNCCCCCCCCCNc2c3c(nc4ccccc24)CCCC3)ccc2cccnc12 | = | 7.70 |
| Cc1ccc2ccc(CNCCCCCCCCNc3c4c(nc5ccccc35)CCCC4)c(O)c2n1.Cl.Cl | = | 8.19 |
| Oc1cccc2cccnc12 | < | 7.00 |
